test system: Staphylococcus aureus; assay: Antibacterial activity against methicillin-susceptible Staphylococcus aureus 42 incubated for 18 to 24 hrs by broth microdilution assay; assay type: functional
value.type: MIC (µg/mL)
Express the result in µg/mL but write the number alone.

These solved cases illustrate the format of a correct answer.
molecule_smiles=CCCn1c(=O)ccc2c(-c3cnc(-c4ccc(C(C)C)nc4)s3)n[nH]c21 value_type=MIC unit_descriptor=µg/mL experimental_result=1
molecule_smiles=CCCn1c(=O)ccc2c(-c3cnc(-c4cccnc4)s3)n[nH]c21 value_type=MIC unit_descriptor=µg/mL experimental_result=0.06
molecule_smiles=CCCn1c(=O)ccc2c(-c3cnc(-c4ccc(C)nc4)s3)n[nH]c21 value_type=MIC unit_descriptor=µg/mL experimental_result=0.25
molecule_smiles=CCCn1c(=O)ccc2c(-c3cnc(-c4ccc(CO)nc4)s3)n[nH]c21 value_type=MIC unit_descriptor=µg/mL experimental_result=0.25

So for "CCCn1c(=O)ccc2c(-c3nc(C(=O)OC)c(-c4cccnc4)s3)n[nH]c21" , the logged MIC turned out to be 0.25
